Below, each entry is listed alongside its reported Papp.
Experiment: Apparent permeability in dog MDCK2 cells incubated for 3 hrs
Format: ADME, cell-based, Canis lupus familiaris
Conditions: mdck-ii
Report as a plain number; the unit ×10⁻⁶ cm/s is understood.

Task: Complete the entry with Papp for CC(C)C[C@H]1NC(=O)[C@@H](C(C)C)NC(=O)CNc2cccc(c2)CCNC(=O)[C@@H]2CCCN2C(=O)[C@H](Cc2ccc(F)cc2)NC1=O
Output: 4

Task: Return the recorded Papp value; entry: CC[C@H](C)[C@@H]1NC(=O)CNc2cccc(c2)CNC(=O)[C@@H]2CCCN2C(=O)[C@H](Cc2ccc(F)cc2)NC(=O)[C@H](CC2CCCCC2)NC1=O
Output: 3.9

Task: Given the compound CC[C@H](C)[C@@H]1NC(=O)CCCNc2cccc(c2)CNC(=O)[C@@H]2CCCN2C(=O)[C@H](Cc2ccc(F)cc2)NC(=O)[C@H](CC2CCCCC2)NC1=O , write its reported Papp.
Output: 2.9

Task: Given the compound CC[C@H](C)[C@@H]1NC(=O)CNc2cccc(c2)CCNC(=O)[C@@H]2CCCN2C(=O)[C@@H](Cc2ccccc2)NC(=O)[C@@H](CC(C)C)NC1=O , write its reported Papp.
Output: 7.6

Task: Supply reported Papp belonging to this compound: CC[C@H](C)[C@@H]1NC(=O)CNc2cccc(c2)CCNC(=O)[C@@H]2CCCN2C(=O)[C@H](Cc2ccc(F)cc2)NC(=O)[C@@H](CC(C)C)NC1=O
Output: 5.7

Task: Answer with reported Papp of CC[C@H](C)[C@@H]1NC(=O)CNc2ccccc2CCNC(=O)[C@@H]2CCCN2C(=O)[C@@H](Cc2ccccc2)NC(=O)[C@@H](CC(C)C)NC1=O
Output: 14.5

Task: Respond only with Papp recorded for CC[C@H](C)[C@@H]1NC(=O)CNc2ccccc2CCNC(=O)[C@@H]2CCCN2C(=O)[C@H](Cc2ccc(F)cc2)NC(=O)[C@@H](CC(C)C)NC1=O
Output: 12.9

Task: Tell me its Papp given CC(C)C[C@H]1NC(=O)[C@@H](C(C)C)NC(=O)CNc2ccccc2CCNC(=O)[C@@H]2CCCN2C(=O)[C@H](Cc2ccc(F)cc2)NC1=O as the entry.
Output: 5.5
